- assay_procedure: Stability testing: water absorption of salt forms at 40° C. and 75% RH for five days (KF)
- Type: physicochemical
- conditions_used: water content before exposure
Where a name gives a salt, the structure may show the parent alone.
reported_endpoint: Initial KF
Please provide the amount together with its unit, number first.

Take a look at these entries with their results.
[
  {
    "compound": "CC(C)(O)Cc1ccc(-c2ccc(C(=O)N3CC[C@H](N)C3)cc2-c2ccc(C#N)c(F)c2)c(F)c1 [mono-fumarate Form VI]",
    "reading": "0.61%"
  },
  {
    "compound": "CC(C)(O)Cc1ccc(-c2ccc(C(=O)N3CC[C@H](N)C3)cc2-c2ccc(C#N)c(F)c2)c(F)c1 [mono-oxalate salt (from IPA)]",
    "reading": "2.66%"
  },
  {
    "compound": "CC(C)(O)Cc1ccc(-c2ccc(C(=O)N3CC[C@H](N)C3)cc2-c2ccc(C#N)c(F)c2)c(F)c1 [esylate Form IVA]",
    "reading": "0.76%"
  }
]

# input for lookup
Ask: Give its Initial KF value. Item: CC(C)(O)Cc1ccc(-c2ccc(C(=O)N3CC[C@H](N)C3)cc2-c2ccc(C#N)c(F)c2)c(F)c1 [hemi-fumarate Form I]
Result: 0.69%
